Numbers sourced from ChEMBL document CHEMBL5724914.

Assay: The drug is tested on Z-023 corresponding to metagenome with ENA study accession number: PRJEB37062 and ENA sample accession number: ERS12561822 for biotransformation under anaerobic condition. The drug concentrations were measured over 9 timepoints collected between 0 and 24 hours of incubation by liquid-chromatography-coupled mass spectrometry (LC–MS); note: call rule not given here
Details: 2 µM
observation.type: Bacterial Biotransformation

Below, 5 compounds whose answers are already recorded.
1) O=C1CCc2ccc(OCCCCN3CCN(c4cccc(Cl)c4Cl)CC3)cc2N1 :: Compound metabolized
2) c1ccc2[nH]c(-c3cscn3)nc2c1 :: Compound NOT metabolized
3) CC(=O)O[C@H]1C(=O)[C@@]2(C)[C@H]([C@H](OC(=O)c3ccccc3)[C@]3(O)C[C@H](OC(=O)[C@H](O)[C@@H](NC(=O)c4ccccc4)c4ccccc4)C(C)=C1C3(C)C)[C@]1(OC(C)=O)CO[C@@H]1C[C@@H]2O :: Compound metabolized
4) CC(C)(C)NCC(O)COc1cccc2c1CC(O)C(O)C2 (centres undefined) :: Compound NOT metabolized
5) C=CC[C@@H]1/C=C(\C)C[C@H](C)C[C@H](OC)[C@H]2O[C@@](O)(C(=O)C(=O)N3CCCC[C@H]3C(=O)O[C@H](/C(C)=C/[C@@H]3CC[C@@H](O)[C@H](OC)C3)[C@H](C)[C@@H](O)CC1=O)[C@H](C)C[C@@H]2OC.O :: Compound NOT metabolized

For every record below, what is its Bacterial Biotransformation?
1. CN1C[C@H](C(=O)N[C@]2(C)O[C@@]3(O)[C@@H]4CCCN4C(=O)[C@H](Cc4ccccc4)N3C2=O)C[C@@H]2c3cccc4[nH]cc(c34)C[C@H]21.CS(=O)(=O)O [DIHYDROERGOTAMINE MESYLATE]
2. CCN(CC)CCOC(=O)C1(C2CCCCC2)CCCCC1
3. CC(C)(C)NC(=O)[C@H]1CC[C@H]2[C@@H]3CC[C@H]4NC(=O)C=C[C@]4(C)[C@H]3CC[C@]12C [FINASTERIDE]
4. CN1CCC(OC(c2ccccc2)c2ccccc2)CC1
5. C#C[C@]1(OC(C)=O)CC[C@H]2[C@@H]3CCC4=C/C(=N/O)CC[C@@H]4[C@H]3CC[C@@]21CC [NORGESTIMATE]
6. N=C(N)NC(=O)Cc1c(Cl)cccc1Cl

Compound metabolized
Compound metabolized
Compound metabolized
Compound metabolized
Compound NOT metabolized
Compound NOT metabolized

Provide each entry's Bacterial Biotransformation from the list below.
1. O=C1N=C([O-])NC1(c1ccccc1)c1ccccc1.[Na+] [PHENYTOIN SODIUM]
2. C[C@]12C=CC(=O)C=C1CC[C@@H]1[C@@H]2C(=O)C[C@@]2(C)[C@H]1CC[C@]2(O)C(=O)CO
3. Nc1nc(N)nc(-c2cc(Cl)ccc2Cl)n1.O=C(O)/C=C\C(=O)O [IRSOGLADINE MALEATE]

["Compound NOT metabolized", "Compound metabolized", "Compound NOT metabolized"]

----------
Details: human gut metagenome, 24 h, 2 µM
observation.type: Bacterial Biotransformation

1) COc1ccccc1OCCNCC(O)COc1cccc2[nH]c3ccccc3c12 (centres undefined) :: Compound NOT metabolized
2) CCN(CC)CCNC(=O)c1ccc(NC(C)=O)cc1 [ACECAINIDE] :: Compound NOT metabolized
3) c1ccc2[nH]c(-c3cscn3)nc2c1 :: Compound NOT metabolized
4) CCN(C(C)=O)c1cccc(-c2ccnc3c(C#N)cnn23)c1 :: Compound NOT metabolized

Could you tell me Bacterial Biotransformation for each of these compounds? They are listed below.
1. CSc1ccc2c(c1)C(N1CCN(C)CC1)Cc1ccccc1S2.O=C(O)/C=C\C(=O)O (centres undefined)
2. COc1ccc(CN2CCNCC2)c(OC)c1OC.Cl.Cl [TRIMETAZIDINE DIHYDROCHLORIDE]
3. CCc1cccc2c3c([nH]c12)C(CC)(CC(=O)O)OCC3 (centres undefined)
4. CC(=O)Nc1ccc(OC(C)=O)cc1 [DIACETAMATE]
5. COc1ccc(/C=C/C(=O)Nc2ccccc2C(=O)O)cc1OC

["Compound NOT metabolized", "Compound NOT metabolized", "Compound metabolized", "Compound metabolized", "Compound NOT metabolized"]
